Molecular target: feline FcRn complex (FcRn-α subunit and β-microglobulin), biotin labeled (feline)
Assay: SPR, pH 6
readout-label: pKd
Recall that pKd is obtained by taking minus log10 of the concentration measured in molar.

Measured pKd, feline IgG1a S428G (antibody, part only; not given: Variable domains, not shown: another chain or arm of the molecule) constant: ASTTAPSVFPLAPSCGTTSGATVALACLVLGYFPEPVTVSWNSGALTSGVHTFPAVLQASGLYSLSSMVTVPSSRWLSDTFTCNVAHPPSNTKVDKTVRKTDHPPGPKPCDCPKCPPPEMLGGPSIFIFPPKPKDTLSISRTPEVTCLVVDLGPDDSDVQITWFVDNTQVYTAKTSPREEQFNSTYRVVSVLPILHQDWLKGKEFKCKVNSKSLPSPIERTISKAKGQPHEPQVYVLPPAQEELSRNKVSVTCLIKSFHPPDIAVEWEITGQPEPENNYRTTPPQLDSDGTYFVYSKLSVDRSHWQRGNTYTCSVGHEALHSHHTQKSLTQSPGK : 7.33
